Each recorded value in this set is attributed to PubChem BioAssay AID1963850.

# Test system: 192522-019-R-J2-PDC complex tumor spheroid viability;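 further: spheroids exposed to drugs for seven days before reading; 100% = DMSO vehicle control viability in luminescence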
# ASSAY EXPLANATION: Anticancer human tumor 192522-019-R-J2-PDC patient-derived colon adenocarcinoma cell line growth inhibition [POLQ]
# CONDITION PARAMETERS: second compound 1 µM; first compound 0.0316 µM; stronger effect = lower value

COMPOUND: COc1cc(C2c3cc4c(cc3C(OC3OC5COC(C)OC5C(O)C3O)C3COC(=O)C23)OCO4)cc(OC)c1O (stereo not drawn) + Nc1ccc(C#CCN(C(=O)Cc2ncc(C(F)(F)F)cc2C(F)(F)F)c2ccc(F)cc2)nn1
viability, T/C / %: 100
--
COMPOUND: Cn1ncnc1[C@H]1c2n[nH]c(=O)c3cc(F)cc(c23)N[C@@H]1c1ccc(F)cc1 + Nc1ccc(C#CCN(C(=O)Cc2ncc(C(F)(F)F)cc2C(F)(F)F)c2ccc(F)cc2)nn1
viability, T/C / %: 105
--
COMPOUND: C=CCn1c(=O)c2cnc(Nc3ccc(N4CCN(C)CC4)cc3)nc2n1-c1cccc(C(C)(C)O)n1 + Cc1cccc(N(C)C(=O)C2C(O)CCN2c2nc(C)cc(C(F)(F)F)c2C#N)c1
viability, T/C / %: 107
